- System: HCC-2998 colon
- procedure_summary: NCI tumour cell line growth inhibition, 48 h
measured_metric: TGI

Here's what some known entries look like.
COC1OC2COC1(OC)C1OC(C)(C)OC21 (centres undefined): > 100 µM
O=C(c1ccccc1)c1cccc(C(=O)c2ccccc2)c1: > 100 µM
COC(=O)C(Cc1ccccc1)NP(=O)(O)OCC1OC(n2cc(F)c(=O)[nH]c2=O)CC1O (centres undefined): > 100 µM
C[C@]12CC[C@H]3[C@@H](CC[C@]4(O)C[C@@H](O)CC[C@]34/C=N/O)[C@@]1(O)CC[C@@H]2C1=COC(=O)C1: 0.687 µM
CCN(CC)Cc1ccc(Nc2nccc(-c3cnn4ncccc34)n2)cc1: 0.129 µM

From here, focus on the item given below.
Can you share its TGI? I mean this molecule: C/C=C(/C)C(=O)O[C@H](C[C@@H](C)[C@H]1CC(c2ccoc2)OC1=O)[C@@]1(C)C(=O)CCC2O[C@]21C (some centres undefined)
> 100 µM
